Measured values drawn from the supplement of paper PMC4862054 for this set.

System: CAL-148
Run Description: normalised response (% of control), CellTiter-Glo; higher = more viable cells (100 = DMSO, 0 = benzethonium chloride kill control)
Assay Context: incubation time: 72 h
Entries and their normalised response values follow.
Output spec: scalar in %, unitless text.

NC(=O)Nc1cc(-c2cccc(F)c2)sc1C(=O)N[C@H]1CCCNC1 [AZD7762] (0.1 nM)    102
CCC1=C[C@@H]2CN(C1)Cc1c([nH]c3ccccc13)[C@@](C(=O)OC)(c1cc3c(cc1OC)N(C)[C@H]1[C@@](O)(C(=O)OC)[C@H](OC(C)=O)[C@]4(CC)C=CCN5CC[C@]31[C@@H]54)C2 [Vinorelbine] (1000 nM)    43.2
N#CCNC(=O)c1ccc(-c2ccnc(Nc3ccc(N4CCOCC4)cc3)n2)cc1 [Momelotinib] (1000 nM)    85
C[C@@H](Oc1cc(-c2cnn(C3CCNCC3)c2)cnc1N)c1c(Cl)ccc(F)c1Cl [Crizotinib] (0.1 nM)    102
O=P1(NCCCl)OCCCN1CCCl (stereo not given) [Ifosfamide] (1 nM)    99.4

Then this molecule:
**Query** So what's the measured normalised response for this one? CCCCCCCCCCCCCCCCCCOP(=O)([O-])OC1CC[N+](C)(C)CC1 [Perifosine] (0.25 nM)
**Result** 99.2

---

Test system: CAL-85-1
Run Description: normalised response (% of control), CellTiter-Glo; higher = more viable cells (100 = DMSO, 0 = benzethonium chloride kill control)
Assay Context: incubation time: 72 h
Entries and their normalised response values follow.
Output spec: scalar in %, unitless text.

Look over these answered cases.
N.N.[Cl][Pt][Cl] [Cisplatin] (10 nM)    94.7
CC1(C)NC(=O)N(c2ccc([N+](=O)[O-])c(C(F)(F)F)c2)C1=O [Nilutamide] (100 nM)    101
NC(=O)Nc1cc(-c2cccc(F)c2)sc1C(=O)N[C@H]1CCCNC1 [AZD7762] (10 nM)    97.5
N[C@@H](CSC(c1ccccc1)(c1ccccc1)c1ccccc1)C(=O)O [S-trityl-L-cysteine] (400 nM)    102
C=C(c1ccc(C(=O)O)cc1)c1cc2c(cc1C)C(C)(C)CCC2(C)C [Bexarotene] (100 nM)    105

Then this compound:
**Query** So what's the measured normalised response for this one? CN(N=O)C(=O)N[C@@H](C=O)[C@@H](O)[C@H](O)[C@H](O)CO [Streptozocin] (100 nM)
**Result** 104

---

Entries and their EC50, CellTiter-Blue viability values follow.
Test system: Hs578T
Assay Context: 72 h
Output spec: scalar in µM, unitless text.

Look over these answered cases.
CCC1=C[C@@H]2CN(C1)Cc1c([nH]c3ccccc13)[C@@](C(=O)OC)(c1cc3c(cc1OC)N(C)[C@H]1[C@@](O)(C(=O)OC)[C@H](OC(C)=O)[C@]4(CC)C=CCN5CC[C@]31[C@@H]54)C2    0.0398
Cn1c(Nc2ccc(C(F)(F)F)cc2)nc2cc(Oc3ccnc(-c4ncc(C(F)(F)F)[nH]4)c3)ccc21    0.196

**Query** So what's the measured EC50, CellTiter-Blue viability for this one? CN[C@@H]1C[C@H]2O[C@@](C)([C@@H]1OC)n1c3ccccc3c3c4c(c5c6ccccc6n2c5c31)C(=O)N[C@H]4O
**Result** 0.0306

---

System: MDA-MB-453
Run Description: normalised response (% of control), CellTox Green; higher = less cell death (100 = DMSO, 0 = benzethonium chloride kill control)
Assay Context: incubation time: 72 h
Entries and their normalised response values follow.
Output spec: scalar in %, unitless text.

**Query** So what's the measured normalised response for this one? CN(C)/N=N/c1[nH]cnc1C(N)=O [Dacarbazine] (100 nM)
**Result** 99.6

**Query** So what's the measured normalised response for this one? CC(=O)Nc1ccc(C(=O)Nc2ccccc2N)cc1 [Tacedinaline] (1000 nM)
**Result** 98.2

**Query** So what's the measured normalised response for this one? COc1cc2nccc(Oc3ccc(NC(=O)C4(C(=O)Nc5ccc(F)cc5)CC4)cc3)c2cc1OC [Cabozantinib] (100 nM)
**Result** 99.4

**Query** So what's the measured normalised response for this one? NC(=O)Nc1cc(-c2cccc(F)c2)sc1C(=O)N[C@H]1CCCNC1 [AZD7762] (1000 nM)
**Result** 87

**Query** So what's the measured normalised response for this one? CO[C@H]1/C=C\C=C(/C)C(=O)NC2=CC(=O)C(NCCN(C)C)=C(C[C@@H](C)C[C@H](OC)[C@H](O)[C@@H](C)/C=C(\C)[C@@H]1OC(N)=O)C2=O [Alvespimycin] (10 nM)
**Result** 96.9

---

System: CAL-85-1
Run Description: normalised viability (% of control), CellTiter-Blue; higher = more viable cells (about 100 = DMSO control)
Assay Context: incubation time: 72 h
Measure: normalised viability
Put your answer as a value accompanied by its unit after it.

Look over these answered cases.
C#Cc1cccc(Nc2ncnc3cc(OCCOC)c(OCCOC)cc23)c1 [Erlotinib] (10000 nM)    47.7%
COc1cc2nccc(Oc3ccc(NC(=O)C4(C(=O)Nc5ccc(F)cc5)CC4)cc3)c2cc1OC [Cabozantinib] (1000 nM)    45.1%
Cn1c(CCCC(=O)O)nc2cc(N(CCCl)CCCl)ccc21 [Bendamustine] (10000 nM)    92.9%
CCC1=C[C@@H]2CN(C1)Cc1c([nH]c3ccccc13)[C@@](C(=O)OC)(c1cc3c(cc1OC)N(C)[C@H]1[C@@](O)(C(=O)OC)[C@H](OC(C)=O)[C@]4(CC)C=CCN5CC[C@]31[C@@H]54)C2 [Vinorelbine] (10000 nM)    44.2%
Cc1ccc(C(=O)N(CCCN)[C@@H](c2oc3cc(Cl)ccc3c(=O)c2Cc2ccccc2)C(C)C)cc1 (1000 nM)    32.5%
CN[C@@H]1C[C@H]2O[C@@](C)([C@@H]1OC)n1c3ccccc3c3c4c(c5c6ccccc6n2c5c31)C(=O)N[C@H]4O [UCN-01] (10000 nM)    1.96%
CC(C)Cn1cnc2c(N)nc3ccccc3c21 [Imiquimod] (10000 nM)    100%
CN(N=O)C(=O)N[C@@H](C=O)[C@@H](O)[C@H](O)[C@H](O)CO [Streptozocin] (10000 nM)    91.1%

**Query** So what's the measured normalised viability for this one? Oc1nc(-c2ccc(C(F)(F)F)cc2)nc2c1CSCC2 [XAV-939] (10000 nM)
**Result** 82.3%

**Query** So what's the measured normalised viability for this one? Cc1ccc(-n2nc(C(C)(C)C)cc2NC(=O)Nc2ccc(OCCN3CCOCC3)c3ccccc23)cc1 [Doramapimod] (10000 nM)
**Result** 72.6%

---

Tested on: BT-474
Run Description: normalised response (% of control), CellTiter-Glo; higher = more viable cells (100 = DMSO, 0 = benzethonium chloride kill control)
Assay Context: incubation time: 72 h
Measure: normalised response (%)
Output spec: scalar in %, unitless text.

Cn1c(CCCC(=O)O)nc2cc(N(CCCl)CCCl)ccc21 [Bendamustine] (1 nM)    107
C[C@]12CC[C@@H]3c4ccc(O)cc4C[C@@H](CCCCCCCCC[S+]([O-])CCCC(F)(F)C(F)(F)F)[C@H]3[C@@H]1CC[C@@H]2O (stereo partly drawn) [Fulvestrant] (0.1 nM)    101
C[C@@H](Oc1cc(-c2cnn(C3CCNCC3)c2)cnc1N)c1c(Cl)ccc(F)c1Cl [Crizotinib] (0.1 nM)    101
Cc1ccc(-n2nc(C(C)(C)C)cc2NC(=O)Nc2ccc(OCCN3CCOCC3)c3ccccc23)cc1 [Doramapimod] (1000 nM)    86.1
Cn1c(CCCC(=O)O)nc2cc(N(CCCl)CCCl)ccc21 [Bendamustine] (1000 nM)    101
CNCc1ccc(-c2[nH]c3cc(F)cc4c3c2CCNC4=O)cc1 [Rucaparib] (1000 nM)    92.3
NC(=O)Nc1cc(-c2cccc(F)c2)sc1C(=O)N[C@H]1CCCNC1 [AZD7762] (1 nM)    114

Then this compound:
**Query** So what's the measured normalised response for this one? CC(C)Cn1cnc2c(N)nc3ccccc3c21 [Imiquimod] (2.5 nM)
**Result** 104

---

System: BT-549
Run Description: normalised viability (% of control), CellTiter-Blue; higher = more viable cells (100 = DMSO, 0 = benzethonium chloride kill control)
Assay Context: incubation time: 72 h
Entries and their normalised viability values follow.
Output spec: scalar in %, unitless text.

Look over these answered cases.
CCN(CCCOc1ccc2c(Nc3cc(CC(=O)Nc4cccc(F)c4)[nH]n3)ncnc2c1)CCOP(=O)(O)O [Barasertib] (0.1 nM)    103
O=P1(NCCCl)OCCCN1CCCl (stereo unspecified) [Ifosfamide] (1 nM)    122
CC(C)Cn1cnc2c(N)nc3ccccc3c21 [Imiquimod] (1 nM)    105
CCC1(c2ccc(N)cc2)CCC(=O)NC1=O (stereo unspecified) [Aminoglutethimide] (1 nM)    93.2
CCC1=C[C@@H]2CN(C1)Cc1c([nH]c3ccccc13)[C@@](C(=O)OC)(c1cc3c(cc1OC)N(C)[C@H]1[C@@](O)(C(=O)OC)[C@H](OC(C)=O)[C@]4(CC)C=CCN5CC[C@]31[C@@H]54)C2 [Vinorelbine] (1 nM)    109

Then this compound:
**Query** So what's the measured normalised viability for this one? CO[C@H]1/C=C\C=C(/C)C(=O)NC2=CC(=O)C(NCCN(C)C)=C(C[C@@H](C)C[C@H](OC)[C@H](O)[C@@H](C)/C=C(\C)[C@@H]1OC(N)=O)C2=O [Alvespimycin] (0.1 nM)
**Result** 91.9
